Target: volume-sensitive outwardly rectifying Cl− conductance (VSORC) (Mus musculus)
Sequence (Q80WG5 1-810): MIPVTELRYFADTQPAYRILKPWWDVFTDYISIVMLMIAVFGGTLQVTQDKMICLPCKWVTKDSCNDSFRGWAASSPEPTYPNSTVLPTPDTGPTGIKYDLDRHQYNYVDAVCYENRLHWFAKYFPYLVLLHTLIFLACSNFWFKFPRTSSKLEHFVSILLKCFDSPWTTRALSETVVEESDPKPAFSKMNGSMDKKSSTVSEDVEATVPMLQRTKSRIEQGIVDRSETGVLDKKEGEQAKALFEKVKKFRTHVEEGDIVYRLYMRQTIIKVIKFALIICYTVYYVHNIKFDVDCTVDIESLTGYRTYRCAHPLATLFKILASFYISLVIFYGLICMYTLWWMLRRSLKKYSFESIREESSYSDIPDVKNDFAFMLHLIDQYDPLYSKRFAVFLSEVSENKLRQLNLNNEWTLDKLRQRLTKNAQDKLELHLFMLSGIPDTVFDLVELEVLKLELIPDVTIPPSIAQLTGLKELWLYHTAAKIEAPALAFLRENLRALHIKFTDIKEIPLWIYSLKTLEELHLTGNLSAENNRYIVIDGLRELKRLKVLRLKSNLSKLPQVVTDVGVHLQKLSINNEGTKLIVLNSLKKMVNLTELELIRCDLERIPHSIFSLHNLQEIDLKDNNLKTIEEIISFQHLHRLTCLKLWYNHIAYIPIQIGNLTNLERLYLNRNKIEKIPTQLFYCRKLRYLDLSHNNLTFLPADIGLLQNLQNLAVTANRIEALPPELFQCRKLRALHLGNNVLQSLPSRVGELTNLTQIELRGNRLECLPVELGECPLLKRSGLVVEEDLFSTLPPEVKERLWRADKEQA
Assay type: cell-based
Conditions: read-out: IC50 towards VSORC-mediated Cl− currents; either at negative or positive potentials; CFTR-expressing cells

| Smiles Entry | IC50 [µM] |
| --- | --- |
| O=C(O)c1ccc(C=C2SC(=S)N(c3cccc(C(F)(F)F)c3)C2=O)cc1 | 12 |
